System: HBV
Assay: HBV-DNA Antiviral Assay Using HepG2.2.15 Cells (extracellular HBV DNA by qPCR)
Assay type: cell-based, hepatitis B virus (HBV)
Conditions: Hepatitis B virus; HBV DNA inhibition, HepG2.2.15 cells, extracellular HBV DNA by qPCR; read-out: EC50
Task for the reader: assign each of the following compounds its reported EC50.

Query: Give EC50 for the following compound: C#C[C@@H](CCO)NC(=O)C(=O)c1c(C)c(C(=O)Nc2ccc(F)c(C#N)c2)n(C)c1C [Compound 61a]
Reply: 1 to 10 nM

Query: Give EC50 for the following compound: "C#CC1(NC(=O)C(=O)c2c(C)c(C(=O)Nc3ccc(F)c(C#N)c3)n(C)c2C)CC1"
Reply: < 1 nM

Query: Give EC50 for the following compound: C#CC(C)(CC)NC(=O)C(=O)c1c(C)c(C(=O)Nc2ccc(F)c(F)c2)n(C)c1C (centres unmarked)
Reply: 1 to 10 nM

Query: Give EC50 for the following compound: "C#CCNC(=O)C(=O)c1c(Cl)c(C(=O)Nc2ccc(F)c(C#N)c2)n(C)c1Br"
Reply: 10 to 100 nM

Query: Give EC50 for the following compound: "C#CCNC(=O)C(=O)c1cc(C(=O)Nc2ccc(F)c(C#N)c2)n(C)c1C"
Reply: 10 to 100 nM

Query: Give EC50 for the following compound: "C#CC1(NC(=O)C(=O)c2c(C)c(C(=O)Nc3ccc(F)c(C(F)(F)F)c3)n(C)c2C)COC1"
Reply: < 1 nM

Query: Give EC50 for the following compound: "C=CCNC(=O)C(=O)c1c(C)c(C(=O)Nc2ccnc(Br)c2F)n(C)c1C"
Reply: 10 to 100 nM

Query: Give EC50 for the following compound: "C#CC1(NC(=O)C(=O)c2c(C)c(C(=O)Nc3ccnc(F)c3Br)n(C)c2C)CC(F)(F)C1"
Reply: < 1 nM
